Documented growth AUC normalised to DMSO control across a set of compounds
System: Salmonella enterica typhimurium
Assay: growth AUC normalised to DMSO control (fraction of control); higher = less growth inhibition, active = hit call of the paper
Conditions: 20 µM
I only need the number, thanks.

// lookup growth AUC normalised to DMSO control for C[C@]12COC(=O)C[C@@H]1CC[C@@H]1[C@@H]2CC[C@@]2(C)[C@H]1CC[C@]2(C)O
1.01

---

Tested on: Yersinia pseudotuberculosis
Assay: growth AUC normalised to DMSO control (fraction of control); higher = less growth inhibition, active = hit call of the paper
Conditions: 20 µM
Structures can show the parent of a compound that is named as a salt.
Documented growth AUC normalised to DMSO control across a set of compounds
I only need the number, thanks.

Solved cases (6 shown):
• CC(C)N(CCC(C(N)=O)(c1ccccc1)c1ccccn1)C(C)C (stereo not drawn) [Disopyramide] = 0.996
• CCCC[N+]1(C)[C@@H]2C[C@@H](OC(=O)[C@H](CO)c3ccccc3)C[C@H]1[C@@H]1O[C@@H]12 (stereo partly drawn) [N-Butylscopolammonium bromide] = 1.02
• CC(=O)O[C@H]1CC[C@@]2(C)C(=CC[C@@H]3[C@@H]2CC[C@]2(C)C(=O)CC[C@@H]32)C1 [Dehydroisoandosterone 3-acetate] = 1
• CC(CCc1ccccc1)NC(C)C(O)c1ccc(O)cc1 (stereo not drawn) [Nylidrin] = 0.993
• CCC1(CC)C(=O)C=CNC1=O [Pyrithyldione] = 1
• CCCC(C)(COC(N)=O)COC(=O)NC(C)C (stereo not drawn) [Carisoprodol] = 1

Given the entry CN1[C@@H]2CC[C@H]1C[C@@H](OC(=O)C(CO)c1ccccc1)C2 (stereo partly drawn) [Atropine sulfate monohydrate] , what growth AUC normalised to DMSO control was observed with Yersinia pseudotuberculosis?
1

Given the entry CN(C)C(=O)Oc1cccc([N+](C)(C)C)c1 [Neostigmine bromide] , what growth AUC normalised to DMSO control was observed with Yersinia pseudotuberculosis?
0.916

---

System: P. vulgatus RND KO;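 note: active when median AUC fell below 0.1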
Experiment: growth AUC normalised to DMSO control (median) (fraction of control); higher = less growth inhibition, active = hit call of the paper
Details: 20 µM
Counter-ions that a name gives are not always drawn.
Readout: growth AUC normalised to DMSO control
I only need the number, thanks.

• C[C@@H]1CN([C@H]2CC[C@](C#N)(c3ccc(F)cc3)CC2)CC[C@]1(C(=O)O)c1ccccc1 [Levocabastine hydrochloride] = 0.989
• CN1[C@@H]2C[C@@H](OC(=O)[C@H](CO)c3ccccc3)C[C@H]1[C@@H]1O[C@@H]12 [Scopolamine hydrochloride] = 1.03
• COc1ccc(CCN2CCC(Nc3nc4ccccc4n3Cc3ccc(F)cc3)CC2)cc1 = 1.01

// lookup growth AUC normalised to DMSO control for Oc1ccc2c3c1O[C@H]1[C@@H](O)CC[C@@]4(O)[C@@H](C2)N(CC2CCC2)CC[C@]314 [Nalbuphine hydrochloride]
0.997

---

Test system: Haemophilus parainfluenzae
Experiment: growth AUC normalised to DMSO control (fraction of control); higher = less growth inhibition, active = hit call of the paper
Conditions: 20 µM
Where a name gives a salt, the structure may show the parent alone.
Answer with one of the outcomes TRUE (active), FALSE (inactive)

* CC(C)OC(=O)C(C)(C)Oc1ccc(C(=O)c2ccc(Cl)cc2)cc1 [Fenofibrate] | FALSE
* CCc1nn(CCCN2CCN(c3cccc(Cl)c3)CC2)c(=O)n1CCOc1ccccc1 [Nefazodone hydrochloride] | FALSE
* CC(=O)O[C@]1(C(C)=O)CC[C@H]2[C@@H]3C=C(C)C4=CC(=O)CC[C@@H]4[C@H]3CC[C@@]21C [Nomegestrol acetate] | FALSE
* O=C(N[C@H](CO)[C@H](O)c1ccc([N+](=O)[O-])cc1)C(Cl)Cl | TRUE
* CC(C)(C)C(=O)OCOC(=O)[C@@H]1N2C(=O)[C@@H](NC(=O)[C@H](N)c3ccccc3)[C@H]2SC1(C)C | FALSE

Check the results log: what was the call for C#C[C@]1(O)CC[C@H]2[C@@H]3CCC4=CC(=O)CC[C@@H]4[C@H]3CC[C@@]21C ?
FALSE

Check the results log: what was the call for CCCCc1nc(Cl)c(CO)n1Cc1ccc(-c2ccccc2-c2nnn[nH]2)cc1 ?
FALSE
